Hey, just so you know, these numbers are from the supplement of paper PMC8149375.

The entries below come with measured minimum viability across doses values attached.
Tested on: 786-O
Assay: minimum viability across doses, drug + dasatinib, relative to DMSO (fraction); higher = less growth inhibition
Details: treatment: drug + dasatinib (fixed dose, not stated); 5 days
// no unit string in output, number only

// below: answered compounds
Compound	Attribute measured	Endpoint result
O=C(Nc1cccc(Nc2ncc(Br)c(NCCc3cnc[nH]3)n2)c1)N1CCCC1 [BX-912] + Cc1nc(Nc2ncc(C(=O)Nc3c(C)cccc3Cl)s2)cc(N2CCN(CCO)CC2)n1	minimum viability across doses	0.0673
FC(F)(F)c1ccc(Nc2nc3cc(Oc4ccnc(-c5ncc(C(F)(F)F)[nH]5)c4)ccc3[nH]2)cc1 [Raf265 derivative] + Cc1nc(Nc2ncc(C(=O)Nc3c(C)cccc3Cl)s2)cc(N2CCN(CCO)CC2)n1	minimum viability across doses	0.241
CCN(CC)CCNC(=O)c1c(C)[nH]c(/C=C2\C(=O)Nc3ccc(F)cc32)c1C.O=C(O)C[C@H](O)C(=O)O [Sunitinib Malate (Sutent)] + Cc1nc(Nc2ncc(C(=O)Nc3c(C)cccc3Cl)s2)cc(N2CCN(CCO)CC2)n1	minimum viability across doses	0.0195

For the compound Cc1c(CN2CCN(C(=O)[C@H](C)O)CC2)sc2c(N3CCOCC3)nc(-c3cnc(N)nc3)nc12 [GDC-0980 (RG7422)] + Cc1nc(Nc2ncc(C(=O)Nc3c(C)cccc3Cl)s2)cc(N2CCN(CCO)CC2)n1 , what minimum viability across doses is on record?
0.00396
